Recorded values, source patent US20100047245A1.

# Assay System: recombinant purified human IL-12 p70 (human) (UniProt P29459)
# Sequence (chain, as listed by the source, form in doubt, chain 1 of 2): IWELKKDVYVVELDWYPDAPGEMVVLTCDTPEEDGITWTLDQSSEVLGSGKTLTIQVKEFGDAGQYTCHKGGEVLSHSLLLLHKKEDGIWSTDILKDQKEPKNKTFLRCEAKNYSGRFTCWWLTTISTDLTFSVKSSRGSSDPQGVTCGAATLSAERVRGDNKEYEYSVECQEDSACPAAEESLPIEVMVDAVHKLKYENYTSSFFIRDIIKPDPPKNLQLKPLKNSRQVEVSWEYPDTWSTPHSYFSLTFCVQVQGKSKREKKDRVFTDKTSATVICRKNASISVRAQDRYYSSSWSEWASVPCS
# Sequence (P29459 23-219, form in doubt, chain 2 of 2): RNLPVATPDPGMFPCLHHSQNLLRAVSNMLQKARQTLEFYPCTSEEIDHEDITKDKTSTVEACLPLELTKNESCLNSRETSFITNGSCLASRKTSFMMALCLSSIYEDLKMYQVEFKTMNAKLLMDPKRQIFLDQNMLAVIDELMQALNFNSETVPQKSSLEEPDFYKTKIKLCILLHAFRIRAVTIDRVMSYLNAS
# Protocol Summary: SPR (Biacore) per Example 1.1.B; antigen not restated, taken as human IL-12 p70
Property Label: kon (M⁻¹ s⁻¹)
Dear colleague, please return just the value in M⁻¹ s⁻¹, with no unit written.

IN: If you can, please state the reported kon value of 8E1.5 (antibody, IgG1, V domains shown) VH: EVQLVESGGGLVQPGGSLRLSCAASGFTFSDYGMVWVRQAPGKGLEWVASISSGSSNIYYADTVKGRFTISRDNAKNTLYLQMNSLRAEDTAVYYCARNPYWGQGTLVTVSS VL: DIQMTQSPSSLSASVGDRVTITCKASQNVGTNVAWYQQKPGKAPKGLIYSASHRYSGVPDRFSGSGSGTDFTLTISSLQPEDFATYYCQQYNSYPLTFGGGTKVEIKR .
OUT: 1.6e+06
